- MEASUREMENT TARGET: KDR(h) (Homo sapiens)
- Sequence (P35968 20-1356): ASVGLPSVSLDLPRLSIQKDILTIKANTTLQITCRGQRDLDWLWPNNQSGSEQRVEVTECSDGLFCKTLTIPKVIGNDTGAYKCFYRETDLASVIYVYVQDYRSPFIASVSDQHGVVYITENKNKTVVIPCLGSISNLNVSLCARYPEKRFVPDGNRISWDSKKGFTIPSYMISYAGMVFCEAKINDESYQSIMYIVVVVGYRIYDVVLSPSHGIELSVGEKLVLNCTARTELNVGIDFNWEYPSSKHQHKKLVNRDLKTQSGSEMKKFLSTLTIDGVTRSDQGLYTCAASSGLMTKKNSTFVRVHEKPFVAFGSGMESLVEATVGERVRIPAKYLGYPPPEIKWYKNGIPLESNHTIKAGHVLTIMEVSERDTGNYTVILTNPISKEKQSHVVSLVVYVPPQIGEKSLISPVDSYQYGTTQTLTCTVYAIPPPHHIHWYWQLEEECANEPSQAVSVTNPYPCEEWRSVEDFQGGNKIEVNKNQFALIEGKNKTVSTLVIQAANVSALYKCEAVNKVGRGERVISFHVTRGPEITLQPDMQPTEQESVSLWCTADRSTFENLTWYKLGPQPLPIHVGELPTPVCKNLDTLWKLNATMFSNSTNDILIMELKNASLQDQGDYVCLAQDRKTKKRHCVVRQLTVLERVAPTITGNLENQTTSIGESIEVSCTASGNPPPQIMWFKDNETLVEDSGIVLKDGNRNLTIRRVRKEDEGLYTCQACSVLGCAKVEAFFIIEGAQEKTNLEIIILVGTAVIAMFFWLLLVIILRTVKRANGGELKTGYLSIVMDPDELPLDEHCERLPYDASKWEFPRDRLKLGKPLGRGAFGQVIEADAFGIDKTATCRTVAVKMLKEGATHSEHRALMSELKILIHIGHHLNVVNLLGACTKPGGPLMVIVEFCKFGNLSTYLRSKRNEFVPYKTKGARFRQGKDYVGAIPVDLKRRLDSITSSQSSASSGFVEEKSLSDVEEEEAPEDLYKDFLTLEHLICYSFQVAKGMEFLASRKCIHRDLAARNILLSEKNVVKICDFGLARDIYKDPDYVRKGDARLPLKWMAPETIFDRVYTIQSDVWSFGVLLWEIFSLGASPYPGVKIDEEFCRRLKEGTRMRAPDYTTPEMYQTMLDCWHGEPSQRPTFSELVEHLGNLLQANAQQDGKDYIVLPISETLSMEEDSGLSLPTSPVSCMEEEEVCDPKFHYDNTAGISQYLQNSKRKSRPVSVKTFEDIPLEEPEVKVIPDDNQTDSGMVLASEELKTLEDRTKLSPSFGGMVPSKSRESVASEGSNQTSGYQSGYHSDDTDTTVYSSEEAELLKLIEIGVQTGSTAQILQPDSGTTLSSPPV
- EXPERIMENTAL DETAILS: KinaseProfiler kinase assay
- Type: biochemical
Catalogue of molecules with associated inhibition at 1 µM

MOLECULE | MEASUREMENT TARGET | inhibition at 1 µM [%]
Cc1cc2c(F)c(Oc3nc(Nc4cc(C5CC5)[nH]n4)cc(N4C[C@@H](C)N[C@@H](C)C4)n3)ccc2[nH]1 | KDR(h) (Homo sapiens) | 93
C/C=C/c1cc(Nc2cc(N3CCC(O)C3)nc(Oc3ccc4[nH]c(C)cc4c3F)n2)n[nH]1 (stereo not drawn) | KDR(h) (Homo sapiens) | 97
Cc1cc2c(F)c(Oc3nc(Nc4cc(C5CC5)[nH]n4)cc(N4CCOCC4)n3)ccc2n1C | KDR(h) (Homo sapiens) | 88
C/C=C/c1cc(Nc2cc(N3CCN(CCOC)CC3)nc(Oc3ccc4[nH]c(C)cc4c3F)n2)n[nH]1 | KDR(h) (Homo sapiens) | 96
Cc1cc2c(F)c(Oc3nc(Nc4cc(C5CC5)[nH]n4)cc(N4CCNCC4)n3)cc(F)c2[nH]1 | KDR(h) (Homo sapiens) | 95
C/C=C/c1cc(Nc2cc(N3CCNCC3)nc(Oc3ccc4[nH]c(C)cc4c3F)n2)n[nH]1 | KDR(h) (Homo sapiens) | 92
Cc1cc2c(F)c(Oc3nc(Nc4cc(C5CC5)[nH]n4)cc(N4CCN(C)CC4)n3)ccc2n1C | KDR(h) (Homo sapiens) | 91
Cc1cc2c(F)c(Oc3nc(Nc4cc(C5CC5)[nH]n4)cc(N4CCN(CCO)CC4)n3)ccc2[nH]1 | KDR(h) (Homo sapiens) | 96
CC(=O)N1CCN(c2cc(Nc3cc(C4CC4)[nH]n3)nc(Oc3ccc4[nH]c(C)cc4c3F)n2)CC1 | KDR(h) (Homo sapiens) | 93
COCC1CCN(c2cc(Nc3cc(C4CC4)[nH]n3)nc(Oc3ccc4[nH]c(C)cc4c3F)n2)C1 (stereo not drawn) | KDR(h) (Homo sapiens) | 90
Cc1cc2c(F)c(Oc3nc(Nc4cc(C5CC5)[nH]n4)cc(N4CCN(CCO)CC4)n3)cc(F)c2[nH]1 | KDR(h) (Homo sapiens) | 96
Cc1cc2c(F)c(Oc3nc(Nc4cc(C5CC5)[nH]n4)cc(N4CCN(c5cccnc5)CC4)n3)ccc2[nH]1 | KDR(h) (Homo sapiens) | 93
CCN1CCN(c2cc(Nc3cc(C4CC4)[nH]n3)nc(Oc3ccc4[nH]c(C)cc4c3F)n2)CC1 | KDR(h) (Homo sapiens) | 91
Cc1cc2c(F)c(Oc3nc(Nc4cc(C5CC5)[nH]n4)cc(N4CCC(F)CC4)n3)ccc2[nH]1 | KDR(h) (Homo sapiens) | 92
C/C=C/c1cc(Nc2cc(N3CCC(OC)CC3)nc(Oc3cc(F)c4[nH]c(C)cc4c3F)n2)n[nH]1 | KDR(h) (Homo sapiens) | 95
COC1CCN(c2cc(Nc3cc(C4CC4)[nH]n3)nc(Oc3ccc4[nH]c(C)cc4c3F)n2)C1 (stereo not drawn) | KDR(h) (Homo sapiens) | 92
C/C=C/c1cc(Nc2cc(N3CCN(CCO)CC3)nc(Oc3cc(F)c4[nH]c(C)cc4c3F)n2)n[nH]1 | KDR(h) (Homo sapiens) | 96
C/C=C/c1cc(Nc2cc(N3CCS(=O)(=O)CC3)nc(Oc3ccc4[nH]c(C)cc4c3F)n2)n[nH]1 | KDR(h) (Homo sapiens) | 95
Cc1cc2c(F)c(Oc3nc(Nc4cc(C5CC5)[nH]n4)cc(N4CCN(c5ccncc5)CC4)n3)ccc2[nH]1 | KDR(h) (Homo sapiens) | 92
C/C=C/c1cc(Nc2cc(N3CCC(OC)C3)nc(Oc3cc(F)c4[nH]c(C)cc4c3F)n2)n[nH]1 (stereo not drawn) | KDR(h) (Homo sapiens) | 95
Cc1cc2c(F)c(Oc3nc(Nc4cc(C5CC5)[nH]n4)cc(N4CCN(CCN(C)C)CC4)n3)ccc2[nH]1 | KDR(h) (Homo sapiens) | 96

====

- MEASUREMENT TARGET: cSRC(h) (Homo sapiens, UniProt P12931)
- Sequence (P12931 whole entry): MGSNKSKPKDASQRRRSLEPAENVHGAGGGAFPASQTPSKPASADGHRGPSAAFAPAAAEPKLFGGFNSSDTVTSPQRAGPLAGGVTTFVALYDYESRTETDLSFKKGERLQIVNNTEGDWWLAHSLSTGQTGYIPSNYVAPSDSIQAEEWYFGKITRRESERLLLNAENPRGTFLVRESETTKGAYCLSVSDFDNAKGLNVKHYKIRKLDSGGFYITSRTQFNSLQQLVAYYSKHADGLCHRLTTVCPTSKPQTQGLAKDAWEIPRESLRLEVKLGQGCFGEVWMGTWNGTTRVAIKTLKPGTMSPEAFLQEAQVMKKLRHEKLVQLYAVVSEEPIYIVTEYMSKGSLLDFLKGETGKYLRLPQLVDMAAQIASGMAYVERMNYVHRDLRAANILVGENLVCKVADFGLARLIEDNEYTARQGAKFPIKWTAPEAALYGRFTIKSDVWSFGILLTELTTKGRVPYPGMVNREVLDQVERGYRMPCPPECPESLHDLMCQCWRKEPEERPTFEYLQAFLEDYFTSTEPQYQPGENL
- EXPERIMENTAL DETAILS: KinaseProfiler kinase assay
- Assay type: biochemical
Catalogue of compounds with associated inhibition at 1 µM

COMPOUND | inhibition at 1 µM / %
C/C=C/c1cc(Nc2cc(N3CCN(C(C)=O)CC3)nc(Oc3ccc4[nH]c(C)cc4c3F)n2)n[nH]1 [Compound 56] | 100
Cc1cc2c(F)c(Oc3nc(Nc4cc(C5CC5)[nH]n4)cc(N4CCNC(=O)C4)n3)ccc2[nH]1 [Compound 19] | 99
Cc1cc2c(F)c(Oc3nc(Nc4cc(C5CC5)[nH]n4)cc(N4CCN(CC(F)(F)F)CC4)n3)ccc2[nH]1 [Compound 38] | 98
Cc1cc2c(F)c(Oc3nc(Nc4cc(C5CC5)[nH]n4)cc(N4CCN(CCO)CC4)n3)cc(F)c2[nH]1 [Compound 83] | 99
Cc1cc2c(F)c(Oc3nc(Nc4cc(C5CC5)[nH]n4)cc(N4CCOCC4)n3)cc(F)c2[nH]1 [Compound 84] | 100
Cc1cc2c(F)c(Oc3nc(Nc4cc(C5CC5)[nH]n4)cc(N4CCOC(CN(C)C)C4)n3)ccc2[nH]1 (stereo not shown) [Compound 30] | 99
Cc1cc2c(F)c(Oc3nc(Nc4cc(C5CC5)[nH]n4)cc(N4CCN(S(C)(=O)=O)CC4)n3)ccc2[nH]1 [Compound 23] | 100
CCC1CN(c2cc(Nc3cc(C4CC4)[nH]n3)nc(Oc3ccc4[nH]c(C)cc4c3F)n2)CCN1 (stereo not shown) [Compound 41] | 97
C/C=C/c1cc(Nc2cc(N3CCOCC3)nc(Oc3cc(F)c4[nH]c(C)cc4c3F)n2)n[nH]1 [Compound 89] | 100
C/C=C/c1cc(Nc2cc(N3CCN(C)CC3)nc(Oc3cc(F)c4[nH]c(C)cc4c3F)n2)n[nH]1 [Compound 87] | 95
Cc1cc(Nc2cc(N3CCOCC3)nc(Oc3cc(F)c4[nH]c(C)cc4c3F)n2)n[nH]1 [Compound 107] | 96
Cc1cc2c(F)c(Oc3nc(Nc4cc(C5CC5)[nH]n4)cc(N4CCC(O)CC4)n3)ccc2[nH]1 [Compound 21] | 98
Cc1cc2c(F)c(Oc3nc(Nc4cc(C5CC5)[nH]n4)cc(N4C[C@@H](C)N[C@@H](C)C4)n3)ccc2[nH]1 [Compound 20] | 99
CC(=O)N1CCN(c2cc(Nc3cc(C4CC4)[nH]n3)nc(Oc3ccc4[nH]c(C)cc4c3F)n2)CC1 [Compound 18] | 99
Cc1cc2c(F)c(Oc3nc(Nc4cc(C5CC5)[nH]n4)cc(N4CC(O)C4)n3)ccc2[nH]1 [Compound 15] | 99
C/C=C/c1cc(Nc2cc(N3CCNCC3)nc(Oc3cc(F)c4[nH]c(C)cc4c3F)n2)n[nH]1 [Compound 90] | 101
C/C=C/c1cc(Nc2cc(N3CCC(O)C3)nc(Oc3cc(F)c4[nH]c(C)cc4c3F)n2)n[nH]1 (stereo not shown) [Compound 92] | 100
Cc1cc2c(F)c(Oc3nc(Nc4cc(C5CC5)[nH]n4)cc(N4CCNC(CO)C4)n3)ccc2[nH]1 (stereo not shown) [Compound 43] | 101
C/C=C/c1cc(Nc2cc(N3CCN(CCF)CC3)nc(Oc3ccc4[nH]c(C)cc4c3F)n2)n[nH]1 [Compound 74] | 100
